test: anti-His antibody binders, primary screen, artefact control for SMM control protein annotation, biochemical, small-molecule microarray, 635 nm fluorescence (AID 1128); settings: anti-His Alexa647 antibody binding, higher = more signal;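 also: score merges feature fluorescence with signal-to-noise for each printed compound spot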
For each of the compounds below, state its composite z-score.
// response body must contain only the number

Which value of composite z-score has been reported for [N-]=[N+]=NCc1ccccc1[C@H]1OC(c2ccc(OCCCO)cc2)=N[C@@]1(Cc1ccccc1N=[N+]=[N-])C(=O)NCc1ccccc1 in the records?
0.859

Bench note: what composite z-score did C[C@@H]1CC[C@H]2C(=O)N3[C@@H](CC[C@@H](C)[C@@H]3c3cccc(N4CCOCC4)c3)C(=O)N2[C@H]1c1cccc(N2CCOCC2)c1 show?
0.181

Query: composite z-score; subject: COc1cc2c(cc1OC)CN(C(=O)[C@@H]1[C@H]3C(=O)O[C@H](c4ccccc4)[C@H](c4ccccc4)N3[C@H](c3ccccc3OCCO)[C@@]13C(=O)Nc1ccccc13)CC2
2.5
